For each of the compounds below, state its LogP.
test: LogP by HPLC on reversed phase columns (EEC directive 79/831 Annex V.A8); type: physicochemical; conditions: method [a]: LC-UV, acidic range, 0.1% formic acid in water and acetonitrile, linear gradient 10% to 95% acetonitrile

Example entries and their recorded answers appear below.
- smiles_structure: "FC1(F)CC(Nc2ncc(-c3noc(C(F)(F)F)n3)cn2)C1"
  readout_label: "LogP"
  result: "3.29^[a]"
- smiles_structure: "FC(F)(F)c1cccc(Nc2ncc(-c3noc(C(F)(F)Cl)n3)cn2)c1"
  readout_label: "LogP"
  result: "4.69^[a]"
- smiles_structure: "FC(F)(F)c1nc(-c2cnc(Nc3cccc(Cl)c3)nc2)no1"
  readout_label: "LogP"
  result: "4.34^[a]"

Please supply LogP for each of the following items, keeping them in order.
1. FC(F)(F)c1nc(-c2cnc(Nc3nc4c(s3)CCC4)nc2)no1
2. FC(F)(F)c1nc(-c2cnc(NC3CCOCC3)nc2)no1

Output line:
1: 3.81^[a]; 2: 2.57^[a]

###

assay: LogP by HPLC on reversed phase columns (EEC directive 79/831 Annex V.A8); type: physicochemical; conditions: method [a]: LC-UV, acidic range, 0.1% formic acid in water and acetonitrile, linear gradient 10% to 95% acetonitrile
readout_label: LogP

Example entries and their recorded answers appear below.
- compound: "Cn1ccnc1Nc1ncc(-c2noc(C(F)(F)F)n2)cn1 [Compound I-88]"
  LogP: "1.08^[a]"
- compound: "COc1ccccc1Nc1ncc(-c2noc(C(F)(F)F)n2)cn1 [Compound I-54]"
  LogP: "4.18^[a]"
- compound: "FC(F)(Cl)c1nc(-c2cnc(Nc3ccc4c(c3)OCO4)nc2)no1 [Compound I-70]"
  LogP: "3.72^[a]"
- compound: "FC(F)(F)c1nc(-c2cnc(NC3Cc4ccccc4C3)nc2)no1 [Compound I-26]"
  LogP: "4.27^[a]"
- compound: "CC1(Nc2ncc(-c3noc(C(F)(F)Cl)n3)cn2)CC1 [Compound I-14]"
  LogP: "3.25^[a]"
- compound: "FC(F)(Cl)c1nc(-c2cnc(NC3(c4ccccc4)CC3)nc2)no1 [Compound I-29]"
  LogP: "3.94^[a]"

Please supply LogP for each of the following items, keeping them in order.
1. COc1cc(Nc2ncc(-c3noc(C(F)(F)Cl)n3)cn2)ccc1C [Compound I-81]
2. FC(F)(Cl)c1nc(-c2cnc(NC3Cc4ccccc4C3)nc2)no1 [Compound I-19]
3. Cc1ccnc(Nc2ccc(-c3noc(C(F)(F)F)n3)cc2)n1 [Compound I-06]
4. CC(=O)Nc1cccc(Nc2ncc(-c3noc(C(F)(F)F)n3)cn2)c1 [Compound I-50]
5. FC(F)(F)c1nc(-c2cnc(Nc3ccc(Cl)cc3)nc2)no1 [Compound I-62]
6. FC(F)(F)c1nc(-c2cnc(NC3(c4ccccc4)CC3)nc2)no1 [Compound I-17]
7. FC(F)(F)c1nc(-c2cnc(NC3CC3)nc2)no1 [Compound I-31]
8. FC(F)(F)c1nc(-c2cnc(Nc3ccccc3Cl)nc2)no1 [Compound I-47]

Output line:
1: 4.51^[a]; 2: 4.49^[a]; 3: 3.83^[a]; 4: 2.59^[a]; 5: 4.34^[a]; 6: 3.74^[a]; 7: 2.57^[a]; 8: 4.20^[a]

Please supply LogP for each of the following items, keeping them in order.
1. FC(F)(Cl)c1nc(-c2cnc(Nc3nc4c(s3)CCC4)nc2)no1 [Compound I-89]
2. FC(F)(F)c1nc(-c2cnc(NC3(c4ccccn4)CCC3)nc2)no1 [Compound I-23]

Output line:
4.03^[a]
1.96^[a]

Please supply LogP for each of the following items, keeping them in order.
1. O=S1(=O)CCC(Nc2ncc(-c3noc(C(F)(F)F)n3)cn2)C1 (stereo not shown) [Compound I-22]
2. FC(F)(Cl)c1nc(-c2cnc(Nc3ccon3)nc2)no1 [Compound I-64]
3. Fc1ccc(Nc2ncc(-c3noc(C(F)(F)Cl)n3)cn2)cc1 [Compound I-72]

Output line:
1: 2.15^[a]; 2: 2.71^[a]; 3: 3.99^[a]

###

test: LogP by HPLC on reversed phase columns (EEC directive 79/831 Annex V.A8); format: physicochemical; conditions: reversed phase HPLC column; method [a]: LC-UV, acidic range, 0.1% formic acid in water and acetonitrile, linear gradient 10% to 95% acetonitrile
For each of the compounds below, state its chromatographic logP.

- compound: "CC(=O)N(c1ncc(-c2noc(C(F)(F)F)n2)cn1)c1ccccc1F [Compound I-07]"
  readout_label: "chromatographic logP"
  result: 3.23

Data point: FC(F)(F)c1nc(-c2ccc(Nc3ncccn3)cc2)no1 [Compound I-05] ; chromatographic logP = 3.5

###

test: LogP by HPLC on reversed phase columns (EEC directive 79/831 Annex V.A8); type: physicochemical; settings: method [a]: LC-UV, acidic range, 0.1% formic acid in water and acetonitrile, linear gradient 10% to 95% acetonitrile
For each of the molecules below, state its LogP.

Please supply LogP for each of the following items, keeping them in order.
1. FC(F)(F)Oc1ccccc1Nc1ccc(-c2noc(C(F)(F)F)n2)cc1
2. COc1cccc(Nc2ncc(-c3noc(C(F)(F)Cl)n3)cn2)c1
3. FC(F)(F)c1nc(-c2cnc(Nc3ccc4c(c3)OCO4)nc2)no1
4. N#Cc1cccc(Nc2ncc(-c3noc(C(F)(F)F)n3)cn2)c1

Output line:
5.11^[a]
3.96^[a]
3.50^[a]
3.52^[a]

Please supply LogP for each of the following items, keeping them in order.
1. FC(F)(F)c1nc(-c2ccc(Nc3ccccc3)cc2)no1
2. FC(F)(F)c1nc(-c2cnc(Nc3ccc(S(F)(F)(F)(F)F)cc3)nc2)no1
3. FC(F)(F)c1nc(-c2cnc(Nc3ccccc3)nc2)no1

Output line:
4.56^[a]
4.80^[a]
3.74^[a]

Please supply LogP for each of the following items, keeping them in order.
1. COc1ccc(Nc2ncc(-c3noc(C(F)(F)Cl)n3)cn2)cc1
2. FC(F)(Cl)c1nc(-c2cnc(NC3CCCC3)nc2)no1

Output line:
1. 3.79^[a]
2. 4.08^[a]

###

For each of the compounds below, state its LogP.
assay: LogP by HPLC on reversed phase columns (EEC directive 79/831 Annex V.A8); type: physicochemical; settings: method [a]: LC-UV, acidic range, 0.1% formic acid in water and acetonitrile, linear gradient 10% to 95% acetonitrile

- compound: "Fc1ccc(Nc2ncc(-c3noc(C(F)(F)Cl)n3)cn2)c(F)c1 [Compound I-75]"
  readout_label: "LogP"
  result: "3.92^[a]"
- compound: "FC(F)(Cl)c1nc(-c2cnc(Nc3cccc4c3CCC4)nc2)no1 [Compound I-73]"
  readout_label: "LogP"
  result: "4.69^[a]"
- compound: "Cc1cccc(Nc2ncc(-c3noc(C(F)(F)Cl)n3)cn2)c1 [Compound I-68]"
  readout_label: "LogP"
  result: "4.34^[a]"
- compound: "O=S1(=O)CCC(Nc2ncc(-c3noc(C(F)(F)Cl)n3)cn2)C1 (centres unmarked) [Compound I-30]"
  readout_label: "LogP"
  result: "2.32^[a]"
- compound: "COc1ccccc1Nc1ncc(-c2noc(C(F)(F)Cl)n2)cn1 [Compound I-78]"
  readout_label: "LogP"
  result: "4.41^[a]"

Please supply LogP for each of the following items, keeping them in order.
1. CC1(Nc2ncc(-c3noc(C(F)(F)F)n3)cn2)CC1 [Compound I-25]
2. FC(F)(F)c1nc(-c2cnc(NC3CC3C(F)(F)F)nc2)no1 (centres unmarked) [Compound I-21]
3. FC(F)(F)c1nc(-c2cnc(Nc3ccc4ncccc4c3)nc2)no1 [Compound I-87]
4. FC(F)(Cl)c1nc(-c2cnc(Nc3ccc(S(F)(F)(F)(F)F)cc3)nc2)no1 [Compound I-83]
5. CC(=O)N1CCC(Nc2ncc(-c3noc(C(F)(F)Cl)n3)cn2)CC1 [Compound I-20]

Output line:
["3.04^[a]", "3.46^[a]", "1.98^[a]", "5.00^[a]", "2.32^[a]"]

Please supply LogP for each of the following items, keeping them in order.
1. N#Cc1cccc(Nc2ncc(-c3noc(C(F)(F)Cl)n3)cn2)c1 [Compound I-82]
2. CC(=O)N1CCC(Nc2ncc(-c3noc(C(F)(F)F)n3)cn2)CC1 [Compound I-13]
3. FC(F)(Cl)c1nc(-c2cnc(Nc3ccc4ncccc4c3)nc2)no1 [Compound I-90]
4. Cc1cccc(Nc2ncc(-c3noc(C(F)(F)F)n3)cn2)c1 [Compound I-56]
5. FC(F)Oc1ccc(Nc2ncc(-c3noc(C(F)(F)F)n3)cn2)cc1 [Compound I-43]

Output line:
3.72^[a]
2.17^[a]
2.13^[a]
4.13^[a]
3.92^[a]

Please supply LogP for each of the following items, keeping them in order.
1. COc1cc(Nc2ncc(-c3noc(C(F)(F)F)n3)cn2)ccc1C [Compound I-52]
2. FC(F)(Cl)c1nc(-c2cnc(Nc3ccccc3Cl)nc2)no1 [Compound I-77]
3. FC(F)(F)c1nc(-c2cnc(Nc3cccc4c3CCC4)nc2)no1 [Compound I-60]
4. N#CCc1ccc(Nc2ncc(-c3noc(C(F)(F)F)n3)cn2)cc1 [Compound I-48]
5. FC(F)(Cl)c1nc(-c2cnc(NC3CC3C(F)(F)F)nc2)no1 (centres unmarked) [Compound I-09]
6. FC(F)(Cl)c1nc(-c2cnc(Nc3ccc(Cl)cc3)nc2)no1 [Compound I-67]
7. FC(F)(Cl)c1nc(-c2cnc(NC3(c4ccccn4)CCC3)nc2)no1 [Compound I-24]

Output line:
1: 4.30^[a]; 2: 4.46^[a]; 3: 4.44^[a]; 4: 3.27^[a]; 5: 3.65^[a]; 6: 4.56^[a]; 7: 2.13^[a]
